System: ECHORC (Watergrass (Calif.))
ASSAY COMMENT: Preemergence weed control under flooded paddy conditions
Assay type: in vivo, Echinochloa oryzoides
CONDITION LABEL: 0.2500 kg/ha, rated 3-4 weeks after treatment
Below: a set of entries, each annotated with reported herbicidal effect rating, ECHORC.
QUANTITY MEASURED: herbicidal effect rating, ECHORC

- COMPOUND: "Cc1ccc(CN2C(=O)CSC2=Nc2cc(-n3c(=O)cc(C(F)(F)F)n(C)c3=O)c(F)cc2Cl)cc1Cl"
  VALUE MEASURED: 7.0
- COMPOUND: "Cc1ccccc1CN1C(=O)CSC1=Nc1cc(-n2c(=O)cc(C(F)(F)F)n(C)c2=O)c(F)cc1Cl"
  VALUE MEASURED: 9.0
- COMPOUND: "CN(C)c1ccc(CN2C(=O)CSC2=Nc2cc(-n3c(=O)cc(C(F)(F)F)n(C)c3=O)c(F)cc2Cl)cc1"
  VALUE MEASURED: 9.0
- COMPOUND: "Cn1c(C(F)(F)F)cc(=O)n(-c2cc(N=C3SCC(=O)N3C3CCCC3)c(Cl)cc2F)c1=O"
  VALUE MEASURED: 4.0
- COMPOUND: "CC(C)N1C(=O)CSC1=Nc1cc(-n2c(=O)cc(C(F)(F)F)n(C)c2=O)c(F)cc1Cl"
  VALUE MEASURED: 9.0
- COMPOUND: "C=C1SC(=Nc2cc(-n3c(=O)cc(C(F)(F)F)n(C)c3=O)c(F)cc2Cl)N(CC(=O)OCC)C1=O"
  VALUE MEASURED: 7.0
- COMPOUND: "Cc1cc(C)cc(CN2C(=O)CSC2=Nc2cc(-n3c(=O)cc(C(F)(F)F)n(C)c3=O)c(F)cc2Cl)c1"
  VALUE MEASURED: 9.0
- COMPOUND: "Cn1c(C(F)(F)F)cc(=O)n(-c2cc(N=C3SCC(=O)N3Cc3ccc(C(F)(F)F)cc3)c(Cl)cc2F)c1=O"
  VALUE MEASURED: 7.0
- COMPOUND: "Cn1c(C(F)(F)F)cc(=O)n(-c2cc(N=C3SCC(=O)N3CC(=O)OC3CCCC3)c(Cl)cc2F)c1=O"
  VALUE MEASURED: 9.0
- COMPOUND: "CCN1C(=O)CSC1=Nc1cc(-n2c(=O)cc(C(F)(F)F)n(C)c2=O)c(F)cc1Cl"
  VALUE MEASURED: 7.0
- COMPOUND: "Cn1c(C(F)(F)F)cc(=O)n(-c2cc(N=C3SCC(=O)N3C3CCC3)c(Cl)cc2F)c1=O"
  VALUE MEASURED: 0.0
- COMPOUND: "Cn1c(C(F)(F)F)cc(=O)n(-c2cc(N=C3SCC(=O)N3Cc3ccc(F)cc3)c(Cl)cc2F)c1=O"
  VALUE MEASURED: 9.0
- COMPOUND: "CC(C)S(=O)(=O)NC(=O)CC1SC(=Nc2cc(-n3c(=O)cc(C(F)(F)F)n(C)c3=O)c(F)cc2Cl)N(C)C1=O (stereo not shown)"
  VALUE MEASURED: 9.0

---

System: SETVI (Foxtail, Green)
ASSAY COMMENT: Postemergence herbicidal evaluation
Assay type: in vivo, Setaria viridis
CONDITION LABEL: postemergence, rate 0.0156 kg/ha
This listing pairs compounds with measured Herbicidal rating SETVI.
QUANTITY MEASURED: Herbicidal rating SETVI

- COMPOUND: "CC(C)S(=O)(=O)NC(=O)CC1SC(=Nc2cc(-n3c(=O)cc(C(F)(F)F)n(C)c3=O)c(F)cc2Cl)N(C)C1=O (stereo not drawn)"
  VALUE MEASURED: 3.0
- COMPOUND: "CCOC(=O)CN1C(=O)C(Br)SC1=Nc1cc(-n2c(=O)cc(C(F)(F)F)n(C)c2=O)c(F)cc1Cl (stereo not drawn)"
  VALUE MEASURED: 0.0
- COMPOUND: "CC(C)COC(=O)CN1C(=O)CSC1=Nc1cc(-n2c(=O)cc(C(F)(F)F)n(C)c2=O)c(F)cc1Cl"
  VALUE MEASURED: 8.0
- COMPOUND: "C=CCN1C(=O)C(CC(=O)NS(=O)(=O)CC)SC1=Nc1cc(-n2c(=O)cc(C(F)(F)F)n(C)c2=O)c(F)cc1Cl (stereo not drawn)"
  VALUE MEASURED: 0.0
- COMPOUND: "CCOC(=O)CN1C(=O)C(OC)SC1=Nc1cc(-n2c(=O)cc(C(F)(F)F)n(C)c2=O)c(F)cc1Cl (stereo not drawn)"
  VALUE MEASURED: 0.0
- COMPOUND: "Cn1c(C(F)(F)F)cc(=O)n(-c2cc(N=C3SCC(=O)N3Cc3cccc(Cl)c3)c(Cl)cc2F)c1=O"
  VALUE MEASURED: 4.0
- COMPOUND: "CCOC(=O)CN1C(=O)C(CC(=O)O)SC1=Nc1cc(N2C(=O)CC(C(F)(F)F)CC2=O)c(F)cc1Cl (stereo not drawn)"
  VALUE MEASURED: 6.0
- COMPOUND: "Cn1c(C(F)(F)F)cc(=O)n(-c2cc(N=C3SCC(=O)N3CC(=O)OC3CCCC3)c(Cl)cc2F)c1=O"
  VALUE MEASURED: 4.0
- COMPOUND: "C=CCN1C(=O)C(CC(=O)NS(=O)(=O)c2ccccc2)SC1=Nc1cc(-n2c(=O)cc(C(F)(F)F)n(C)c2=O)c(F)cc1Cl (stereo not drawn)"
  VALUE MEASURED: 2.0

Data provenance: patent US20020137929A1
